IC50 listing for selected compounds.
Biological target: Recombinant JAK3 (Homo sapiens)
Construct: purchased Carna Biosciences
Sequence (P52333 1-1124): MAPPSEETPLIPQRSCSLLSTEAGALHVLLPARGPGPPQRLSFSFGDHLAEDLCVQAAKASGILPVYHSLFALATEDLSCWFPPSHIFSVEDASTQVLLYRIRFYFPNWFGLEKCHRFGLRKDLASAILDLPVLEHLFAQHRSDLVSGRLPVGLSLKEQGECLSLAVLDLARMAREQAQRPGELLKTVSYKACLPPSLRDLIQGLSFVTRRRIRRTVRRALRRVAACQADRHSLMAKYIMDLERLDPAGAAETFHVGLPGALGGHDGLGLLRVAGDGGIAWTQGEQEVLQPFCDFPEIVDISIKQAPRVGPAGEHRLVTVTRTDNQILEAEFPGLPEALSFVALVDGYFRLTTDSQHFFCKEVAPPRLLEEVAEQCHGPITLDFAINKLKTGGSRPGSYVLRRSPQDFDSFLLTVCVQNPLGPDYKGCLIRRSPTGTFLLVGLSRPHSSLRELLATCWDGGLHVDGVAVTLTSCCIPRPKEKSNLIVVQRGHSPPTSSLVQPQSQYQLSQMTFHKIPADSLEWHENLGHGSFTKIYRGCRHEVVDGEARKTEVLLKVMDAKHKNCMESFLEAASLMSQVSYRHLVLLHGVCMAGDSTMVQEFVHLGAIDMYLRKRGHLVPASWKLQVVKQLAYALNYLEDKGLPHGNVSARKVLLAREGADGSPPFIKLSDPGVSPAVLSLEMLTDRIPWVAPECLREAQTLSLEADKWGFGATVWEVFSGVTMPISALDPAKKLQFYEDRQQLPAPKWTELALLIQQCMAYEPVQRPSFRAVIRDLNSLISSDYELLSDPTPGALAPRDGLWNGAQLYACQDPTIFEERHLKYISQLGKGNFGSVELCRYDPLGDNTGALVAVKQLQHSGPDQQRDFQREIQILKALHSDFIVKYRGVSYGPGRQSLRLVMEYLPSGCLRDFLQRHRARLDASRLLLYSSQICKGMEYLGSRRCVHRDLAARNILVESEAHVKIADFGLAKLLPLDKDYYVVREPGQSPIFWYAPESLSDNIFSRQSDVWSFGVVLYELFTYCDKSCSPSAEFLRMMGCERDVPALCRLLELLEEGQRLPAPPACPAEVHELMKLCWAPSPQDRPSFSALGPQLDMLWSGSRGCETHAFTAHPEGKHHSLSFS
Test: JAK biochemical assay (LANCE Ultra TR-FRET), JAK3
Conditions: recombinant JAK3, TR-FRET; read-out: Biochemical Assay (μM) JAK3

Please review the following examples before continuing.
- compound: "O=C(Nc1ccnc(F)c1)N1CCN(c2ccnc3[nH]c(=O)[nH]c23)CC1 [Example 1015]"
  test.target: "Recombinant JAK3 (Homo sapiens)"
  IC50: "> 1 µM"
- compound: "COc1cc(-c2nc3c(-c4cnn(C5COCCC5C#N)c4)ccnc3[nH]2)ccc1Cl (stereo not drawn) [Example 1097]"
  test.target: "Recombinant JAK3 (Homo sapiens)"
  IC50: "> 10 µM"

Task: Please give the documented IC50 of N#CCC(=O)NC(c1ccc(-n2cc(-c3ccnc4[nH]cnc34)cn2)nc1)C(F)(F)F (stereo not drawn) [Example 1192]
Output: < 0.1 µM

Task: Determine its reported IC50: CS(=O)(=O)CCC(C#N)NC(=O)n1cc(-c2ccnc3[nH]cnc23)cn1 (stereo not drawn) [Example 1072]
Output: > 0.5 µM

Task: Indicate the recorded IC50 value for this compound: O=C(NCC(F)(F)F)n1cc(-c2ccnc3[nH]c(=O)[nH]c23)cn1 [Example 1026]
Output: 0.283 µM

Task: Read off the recorded IC50 for CCN1CC(C(O)(c2ccc(-n3cc(-c4ccnc5[nH]cnc45)cn3)nc2)C(F)(F)F)C1 (stereo not drawn) [Example 1239]
Output: 0.023 µM

Task: Return value of IC50 for input OC(c1ccc(-n2cc(-c3ccnc4[nH]cnc34)cn2)cn1)C(F)(F)F (stereo not drawn) [Example 1173] , no commentary.
Output: < 0.1 µM

###

Readings of IC50 for the listed compounds
Target: Recombinant JAK2 (Homo sapiens)
Construct: purchased Carna Biosciences
Sequence (O60674 whole entry): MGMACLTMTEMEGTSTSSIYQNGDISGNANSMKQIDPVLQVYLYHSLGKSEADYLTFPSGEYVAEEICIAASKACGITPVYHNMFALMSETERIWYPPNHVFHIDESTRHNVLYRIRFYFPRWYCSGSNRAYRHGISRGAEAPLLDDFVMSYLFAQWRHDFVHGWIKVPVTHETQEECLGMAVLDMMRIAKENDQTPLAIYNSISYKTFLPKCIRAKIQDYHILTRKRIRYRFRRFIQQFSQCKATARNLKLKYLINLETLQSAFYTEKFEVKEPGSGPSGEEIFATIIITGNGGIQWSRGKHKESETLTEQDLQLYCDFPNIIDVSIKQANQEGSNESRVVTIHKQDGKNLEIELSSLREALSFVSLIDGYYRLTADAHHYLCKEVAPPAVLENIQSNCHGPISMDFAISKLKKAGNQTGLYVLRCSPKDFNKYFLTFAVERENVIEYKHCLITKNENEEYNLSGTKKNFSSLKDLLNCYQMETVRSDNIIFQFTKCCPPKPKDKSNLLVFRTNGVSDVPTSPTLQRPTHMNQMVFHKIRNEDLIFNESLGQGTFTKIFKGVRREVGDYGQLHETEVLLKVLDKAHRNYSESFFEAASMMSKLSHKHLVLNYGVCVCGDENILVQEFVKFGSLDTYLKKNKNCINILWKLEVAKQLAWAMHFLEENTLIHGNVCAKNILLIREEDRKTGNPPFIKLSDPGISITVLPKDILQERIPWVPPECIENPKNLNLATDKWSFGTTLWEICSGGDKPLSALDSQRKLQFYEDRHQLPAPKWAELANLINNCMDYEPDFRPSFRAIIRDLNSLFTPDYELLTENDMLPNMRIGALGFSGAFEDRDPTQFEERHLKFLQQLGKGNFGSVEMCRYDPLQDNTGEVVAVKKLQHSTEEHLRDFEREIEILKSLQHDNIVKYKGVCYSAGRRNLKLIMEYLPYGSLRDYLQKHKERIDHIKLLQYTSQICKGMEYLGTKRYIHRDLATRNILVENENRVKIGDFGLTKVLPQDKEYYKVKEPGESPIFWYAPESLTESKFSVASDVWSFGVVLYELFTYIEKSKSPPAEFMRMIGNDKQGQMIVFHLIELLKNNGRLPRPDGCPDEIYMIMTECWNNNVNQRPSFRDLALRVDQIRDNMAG
Assay: JAK biochemical assay (LANCE Ultra TR-FRET), JAK2
Conditions: recombinant JAK2, TR-FRET; read-out: Biochemical Assay (μM) JAK2

Guide cases for IC50, answers given:
- compound: "CCCS(=O)(=O)NC1CCN(C(=O)n2cc(-c3ccnc4[nH]cnc34)cn2)C1 (centres unmarked)"
  IC50: "> 1 µM"
- compound: "O[C@](c1ccc(-n2cc(-c3ccnc4[nH]cnc34)cn2)nc1)(C1CCN(C2COC2)C1)C(F)(F)F (some centres unmarked)"
  IC50: "< 0.1 µM"
- compound: "N#CC(c1ccc(-n2cc(-c3ccnc4[nH]cnc34)cn2)nc1)N1CCOCC1 (centres unmarked)"
  IC50: "> 0.5 µM"
- compound: "COC(c1ccc(-n2cc(-c3ccnc4[nH]cnc34)cn2)nc1)(C1CC1)C(F)(F)F (centres unmarked)"
  IC50: "> 1 µM"
- compound: "CS(=O)(=O)CCC(O)(c1ccc(-n2cc(-c3ccnc4[nH]cnc34)cn2)nc1)C(F)(F)F (centres unmarked)"
  IC50: "0.015 µM"

Task: Supply IC50 value. Item: CC(CC#N)NC(=O)n1cc(-c2ccnc3[nH]c(=O)[nH]c23)cn1 (centres unmarked) [Example 1052]
Output: < 0.5 µM

Task: Using known records, supply IC50 for `CC(C)[C@@H](C#N)NC(=O)n1cc(-c2ccnc3[nH]c(=O)[nH]c23)cn1`
Output: < 0.5 µM

Task: Return value of IC50 for input `CC1(C)CN(C(=O)N2CCN(c3ccnc4[nH]c(=O)[nH]c34)CC2)C1` , no commentary.
Output: > 10 µM

Task: Tell me IC50 reported for `O=C(NCC(F)(F)F)Nc1ccc(-c2ccnc3[nH]cnc23)cc1`
Output: < 0.5 µM

Task: For the compound CC(C)N1CCC([C@](O)(c2ccc(-n3cc(-c4ccnc5[nH]cnc45)cn3)nc2)C(F)(F)F)C1 (some centres unmarked) , give its measured IC50 value.
Output: > 0.03 µM

###

Consider the following compounds and their measured IC50 readings.
Target: Recombinant JAK3 (Homo sapiens)
Construct: purchased Carna Biosciences
Assay: JAK biochemical assay (LANCE Ultra TR-FRET), JAK3
Conditions: recombinant JAK3, TR-FRET; read-out: Biochemical Assay (μM) JAK3

Task: State its IC50 for this compound: FC(F)(F)C(CN1CCOCC1)c1ccc(-n2cc(-c3ccnc4[nH]cnc34)cn2)nc1 (centres unmarked) [Example 1206]
Output: > 0.5 µM

Task: Query IC50 for FC(F)(F)C(CCNC1CC1)c1ccc(-n2cc(-c3ccnc4[nH]cnc34)cn2)nc1 (centres unmarked) [Example 1153]
Output: < 0.1 µM

Task: For the compound CS(=O)(=O)CCC(c1cccc(-n2cc(-c3ccnc4[nH]cnc34)cn2)n1)C(F)(F)F (centres unmarked) [Example 1175] , give its measured IC50 value.
Output: > 1 µM

Task: Item CC(CC#N)NC(=O)n1cc(-c2ccnc3[nH]c(=O)[nH]c23)cn1 (centres unmarked) [Example 1046] : provide IC50
Output: < 0.5 µM

Task: Return IC50 (reported value) for this compound: CC(C)C(C#N)NC(=O)n1cc(-c2ccnc3[nH]c(=O)[nH]c23)cn1 (centres unmarked) [Example 1044]
Output: < 0.5 µM

Task: Specify IC50 for CS(=O)(=O)NCC(c1ccc(-n2cc(-c3ccnc4[nH]cnc34)cn2)nc1)C(F)(F)F (centres unmarked) [Example 1209] and stop.
Output: < 0.1 µM

Task: Give the reported value of IC50 for this record: CCN1CCC([C@](O)(c2ccc(-n3cc(-c4ccnc5[nH]cnc45)cn3)nc2)C(F)(F)F)C1 (some centres unmarked) [Example 1233]
Output: < 0.1 µM

Task: Complete the entry with IC50 for OC(CCN1CCOCC1)(c1ccc(-n2cc(-c3ccnc4[nH]cnc34)cn2)nc1)C(F)(F)F (centres unmarked) [Example 1230]
Output: < 0.1 µM

###

Biological target: Recombinant TYK2 (Homo sapiens)
Construct: purchased Carna Biosciences
Sequence (P29597 whole entry): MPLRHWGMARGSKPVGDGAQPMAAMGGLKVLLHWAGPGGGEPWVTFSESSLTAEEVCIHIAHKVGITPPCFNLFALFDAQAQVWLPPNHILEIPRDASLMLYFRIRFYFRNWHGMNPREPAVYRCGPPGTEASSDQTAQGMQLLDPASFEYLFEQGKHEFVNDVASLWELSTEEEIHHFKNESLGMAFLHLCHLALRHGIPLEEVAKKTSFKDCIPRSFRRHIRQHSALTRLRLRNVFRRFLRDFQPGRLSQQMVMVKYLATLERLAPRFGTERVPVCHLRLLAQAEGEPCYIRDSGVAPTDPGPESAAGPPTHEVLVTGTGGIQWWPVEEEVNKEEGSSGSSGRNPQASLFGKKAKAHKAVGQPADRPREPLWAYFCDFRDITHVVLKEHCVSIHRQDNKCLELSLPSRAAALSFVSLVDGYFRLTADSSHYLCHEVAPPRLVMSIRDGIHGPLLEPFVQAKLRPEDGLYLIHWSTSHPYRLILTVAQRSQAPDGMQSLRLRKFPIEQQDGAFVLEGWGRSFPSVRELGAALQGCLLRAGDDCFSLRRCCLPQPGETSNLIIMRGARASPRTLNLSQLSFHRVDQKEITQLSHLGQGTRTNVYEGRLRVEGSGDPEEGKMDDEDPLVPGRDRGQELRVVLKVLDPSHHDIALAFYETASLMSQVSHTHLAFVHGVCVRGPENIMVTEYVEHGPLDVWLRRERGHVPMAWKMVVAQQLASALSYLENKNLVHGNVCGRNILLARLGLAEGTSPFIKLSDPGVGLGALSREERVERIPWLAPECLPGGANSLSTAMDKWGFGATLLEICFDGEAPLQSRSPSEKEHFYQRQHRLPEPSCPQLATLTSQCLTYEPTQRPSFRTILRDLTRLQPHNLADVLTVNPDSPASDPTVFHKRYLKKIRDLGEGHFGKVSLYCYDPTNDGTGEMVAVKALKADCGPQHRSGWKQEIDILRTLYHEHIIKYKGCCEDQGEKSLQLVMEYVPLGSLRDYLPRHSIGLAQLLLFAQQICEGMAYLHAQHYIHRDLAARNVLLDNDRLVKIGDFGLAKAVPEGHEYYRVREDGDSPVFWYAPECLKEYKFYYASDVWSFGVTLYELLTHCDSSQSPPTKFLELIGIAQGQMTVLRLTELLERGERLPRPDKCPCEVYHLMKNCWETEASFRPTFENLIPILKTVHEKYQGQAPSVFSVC
Assay: JAK biochemical assay (LANCE Ultra TR-FRET), TYK2
Details: recombinant TYK2, TR-FRET; read-out: Biochemical Assay (μM) TYK2
quantity.kind: IC50

- compound: "N#CC1(NC(=O)n2cc(-c3ccnc4[nH]c(=O)[nH]c34)cn2)CC1"
  IC50: "< 0.5 µM"
- compound: "O=C(NCC(F)(F)F)N1CCN(c2ccnc3[nH]c(-c4ccccc4)nc23)CC1"
  IC50: "< 0.5 µM"
- compound: "COc1cc(NC(=O)N2CCN(c3ccnc4[nH]c(=O)[nH]c34)CC2)ccn1"
  IC50: "> 1 µM"

Task: Give the measured IC50 for FC(F)(F)C(OCCNC1CC1)c1ccc(-n2cc(-c3ccnc4[nH]cnc34)cn2)nc1 (centres unmarked)
Output: > 0.5 µM

Task: Indicate the recorded IC50 value for this compound: CC(C(N)=O)c1ccc(-n2cc(-c3ccnc4[nH]cnc34)cn2)nc1 (centres unmarked)
Output: > 1 µM

Task: // Input: CS(=O)(=O)CCC(c1cccc(-n2cc(-c3ccnc4[nH]cnc34)cn2)n1)C(F)(F)F (centres unmarked) . Output its IC50 only.
Output: > 1 µM

Task: Dear colleague, please send me the reported IC50 for OC(Cc1ccc(-n2cc(-c3ccnc4[nH]cnc34)cn2)nc1)C(F)(F)F (centres unmarked) when you can.
Output: > 1 µM

Task: State, in one line, measured IC50 of N#CC1CCN(C(=O)n2cc(-c3ccnc4[nH]c(=O)[nH]c34)cn2)C1 (centres unmarked)
Output: > 0.5 µM

Task: Note IC50 for the compound shown: CN1CCC([C@@](O)(c2ccc(-n3cc(-c4ccnc5[nH]cnc45)cn3)nc2)C(F)(F)F)C1 (some centres unmarked)
Output: > 1 µM

Task: Tell me its IC50 given CC(c1ccc(-n2cc(-c3ccnc4[nH]cnc34)cn2)nc1)S(C)(=O)=O (centres unmarked) as the entry.
Output: > 1 µM

Taken from patent US12516056B2.
